Molecular target: T1, human PD1 expressed on a cell surface (human, UniProt Q15116 25-288)
T1 construct: whole, on cells; also called hPD1
T1 sequence (Q15116 25-288): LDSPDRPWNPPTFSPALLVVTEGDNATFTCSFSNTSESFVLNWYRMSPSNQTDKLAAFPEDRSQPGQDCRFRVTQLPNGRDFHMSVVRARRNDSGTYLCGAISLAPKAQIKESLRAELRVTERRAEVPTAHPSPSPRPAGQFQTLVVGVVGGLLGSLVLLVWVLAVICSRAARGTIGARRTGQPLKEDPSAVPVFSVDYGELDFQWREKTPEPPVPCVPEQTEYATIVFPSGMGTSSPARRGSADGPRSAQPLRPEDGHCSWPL
Assay: flow cytometry on OKT3-activated human T cells, CD4+ cells
So I've got a bunch of binders here, and I need their EC50 values.
Supply the numeric figure in nM, leaving out any unit text.

q: Consider the binder anti-hPD1 antibody #7 (antibody, human IgG4, V domains shown, also called Anti-hPD1 #7; Anti-PD1 #7) VH: QVQLVQSGAEVKKPGASVKVSCKASGYTFTNYWIHWVRQAPGQGLEWMGEIDPYDSYTNYNQKFKGRVTMTIDKSTNTVYMELSSLRSEDTAVYYCARPGLTYGGMDFWGQGTLVTVSS VL: DIVMTQSPDSLAVSLGERATINCRSSQSLFISGNQKNYLAWYQQKPGQPPKLLIYGASTRESGVPDRFSGSGSGTDFTLTISSLQAEDVAVYYCQNNHYYPYTFGGGTKVEIK and give its recorded EC50.
a: 0.439

q: Consider the binder anti-hPD1 antibody #5 (antibody, human IgG4, V domains shown, also called Anti-hPD1 #5; Anti-PD1 #5) VH: QVQLVQSGAEVKKPGASVKVSCKASGYTFTNYWMHWVRQAPGQGLEWMGEIDPFDSYTNYNQKFKGRVTMTRDKSTSTVYMELSSLRSEDTAVYYCARPGFTYGGMDFWGQGTLVTVSS VL: DIQMTQSPSSLSASVGDRVTITCRSSQSLLNSGNQKNYLAWYQQKPGKLPKLLIYGASTRDSGVPSRFSGSGSGTDFTLTISSLQAEDVATYYCQNDHYYPYTFGGGTKVEIK and give its recorded EC50.
a: 0.974

q: Consider the binder anti-hPD1 antibody #12 (antibody, human IgG4, V domains shown, also called Anti-hPD1 #12) VH: QVQLVQSGAEVKKPGASVKVSCKASGYTFTNYWMHWVRQAPGQGLEWMGEIDPFDSYTNYNQKFKGRVTMTIDTSTNTVYMELSSLRSEDTAVYYCARPGFTYGGMDFWGQGTLVTVSS VL: DIVMTQSPDSLAVSLGERATISCRSSQSLLISGNQKNYLAWYQQKPGQPPKLLIYGASTRDSGVPDRFSGSGSGTDFTLTISSLQAEDVAVYYCQNNHYYPYTFGGGTKVEIK and give its recorded EC50.
a: 0.849

q: Consider the binder anti-hPD1 antibody #15 (antibody, human IgG4, V domains shown, also called Anti-hPD1 #15) VH: QVQLVQSGAEVKKPGASVKVSCKASGYTFTNYWMHWVRQAPGQGLEWMGEIDPYDSYTNYNQKFKGRVTMTRDTSTNTVYMELSSLRSEDTAVYYCARPGLTYGGMDFWGQGTLVTVSS VL: DIQMTQSPSSLSASVGDRVTITCRSSQSLFNSGNQKNYLAWYQQKPGKPPKLLIYGASTRESGVPYRFSGSGSGTDFTLTISSLQPEDVATYYCQNDHYYPYTFGGGTKVEIK and give its recorded EC50.
a: 0.72

q: Consider the binder anti-hPD1 antibody #14 (antibody, human IgG4, V domains shown, also called Anti-hPD1 #14; Anti-PD1 #14) VH: QVQLVQSGAEVKKPGASVKVSCKASGYTFTNYWIHWVRQAPGQGLEWMGEIDPYDSYTNYNQKFKGRVTMTGDKSTSTVYMELSSLTSEDTAVYYCARPGYTYGGMDFWGQGTLVTVSS VL: DIQMTQSPSSLSASVGDRVTITCKSSQSLFNSGNQKNYLAWYQQKPGKLPKLLIYGASTRDSGVPSRFSGSGSGTDFTLTISSLQPEDVATYYCQNDHYYPYTFGGGTKVEIK and give its recorded EC50.
a: 0.39

Cited source: patent US20190276542A1
